- Subject Of Test: GST-Bc1-2 (Homo sapiens, UniProt P10415)
- Sequence (P10415 whole entry): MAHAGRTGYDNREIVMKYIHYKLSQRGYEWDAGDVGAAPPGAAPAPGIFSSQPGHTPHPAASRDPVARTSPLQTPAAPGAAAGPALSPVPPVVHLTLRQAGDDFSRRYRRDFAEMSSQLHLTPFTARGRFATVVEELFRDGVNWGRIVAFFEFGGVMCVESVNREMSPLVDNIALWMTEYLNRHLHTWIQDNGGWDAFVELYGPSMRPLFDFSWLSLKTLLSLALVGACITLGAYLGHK
- Assay Summary: Time Resolved-Fluorescence Resonance Energy Transfer (TR-FRET) Bcl-2 binding assay with F-Bak peptide probe
- Condition Label: GST-Bcl-2 1 nM, F-Bak probe 100 nM, Tb-anti-GST 1 nM; '<' = below limit of detection; read-out: TR-FRET Bcl-2 Binding Ki
Give Ki for every item shown.

input: Fill in the blank: the reported Ki of "COC(=O)[C@H]1CC[C@H](CNc2ccc(S(=O)(=O)NC(=O)c3ccc(N4CCN(CC5=C(c6ccc(Cl)cc6)CC(C)(C)CC5)CC4)cc3Oc3cnc4[nH]ccc4c3)cc2[N+](=O)[O-])CC1" is ____.
output: < 0.01 nM

input: Fill in the blank: the reported Ki of "CN(C)CC(=O)N1CCC(F)(COc2ncc(S(=O)(=O)NC(=O)c3ccc(N4CCN(CC5=C(c6ccc(Cl)cc6)CC(C)(C)CC5)CC4)cc3Oc3cnc4[nH]ccc4c3)cc2Cl)CC1" is ____.
output: < 0.01 nM

input: Fill in the blank: the reported Ki of "CC1(C)CCC(CN2CCN(c3ccc(C(=O)NS(=O)(=O)c4ccc(OCC5CCN(C(CF)CF)CC5)c([N+](=O)[O-])c4)c(Oc4cnc5[nH]ccc5c4)c3)CC2)=C(c2ccc(Cl)cc2)C1" is ____.
output: 0.002 nM

input: Fill in the blank: the reported Ki of CC1(C)CCC(CN2CCN(c3ccc(C(=O)NS(=O)(=O)c4ccc(NCC5COCCN5)c([N+](=O)[O-])c4)c(Oc4cnc5[nH]ccc5c4)c3)CC2)=C(c2ccc(Cl)cc2)C1 (stereo not shown) is ____.
output: < 0.01 nM

input: Fill in the blank: the reported Ki of "CC1(C)CCC(CN2CCN(c3ccc(C(=O)NS(=O)(=O)c4ccc(NC[C@@H]5CC[C@@H](O)C5)c([N+](=O)[O-])c4)c(Oc4cnc5[nH]ccc5c4)c3)CC2)=C(c2ccc(Cl)cc2)C1" is ____.
output: < 0.01 nM

input: Fill in the blank: the reported Ki of CC1(C)CCC(CN2CCN(c3ccc(C(=O)NS(=O)(=O)c4ccc(NCC5CN(C6CC6)CCO5)c(Cl)c4)c(Oc4cnc5[nH]ccc5c4)c3)CC2)=C(c2ccc(Cl)cc2)C1 (stereo not shown) is ____.
output: 0.621 nM

input: Fill in the blank: the reported Ki of CC1(C)CCC(CN2CCN(c3ccc(C(=O)NS(=O)(=O)c4ccc(NCC5CCCN(CC#N)C5)c([N+](=O)[O-])c4)c(Oc4cnc5[nH]ccc5c4)c3)CC2)=C(c2ccc(Cl)cc2)C1 (stereo not shown) is ____.
output: 2.11 nM

input: Fill in the blank: the reported Ki of "CC1(C)CC(c2ccc(Cl)cc2)=C(CN2CCN(c3ccc(C(=O)NS(=O)(=O)c4ccc(NCC5CCOCC5)c([N+](=O)[O-])c4)c(Oc4ccc5[nH]ccc5c4)c3)CC2)CO1" is ____.
output: 0.083 nM

input: Fill in the blank: the reported Ki of "CC1(C)CCC(CN2CCN(c3ccc(C(=O)NS(=O)(=O)c4ccc(N[C@@H]5CCN(CC(F)F)C5)c([N+](=O)[O-])c4)c(Oc4cnc5[nH]ccc5c4)c3)CC2)=C(c2ccc(Cl)cc2)C1" is ____.
output: < 0.01 nM

input: Fill in the blank: the reported Ki of CC1(C)CCC(CN2CCN(c3ccc(C(=O)NS(=O)(=O)c4cnc(OCCC5CCCO5)c(Cl)c4)c(Oc4cnc5[nH]ccc5c4)c3)CC2)=C(c2ccc(Cl)cc2)C1 (stereo not shown) is ____.
output: 0.09 nM

input: Fill in the blank: the reported Ki of CC1(C)CCC(CN2CCN(c3ccc(C(=O)NS(=O)(=O)c4cnc(OCC5CCC6(CC5)CNC(=O)O6)c(Cl)c4)c(Oc4cnc5[nH]ccc5c4)c3)CC2)=C(c2ccc(Cl)cc2)C1 (stereo not shown) [Example 385] is ____.
output: < 0.01 nM

input: Fill in the blank: the reported Ki of CC1(C)CCC(CN2CCN(c3ccc(C(=O)NS(=O)(=O)c4ccc(NCC5CN(C6COC6)CCO5)c([N+](=O)[O-])c4)c(Oc4cnc5[nH]ccc5c4)c3)CC2)=C(c2ccc(Cl)cc2)C1 (stereo not shown) is ____.
output: < 0.01 nM

input: Fill in the blank: the reported Ki of "CC1(C)CCC(CN2CCN(c3ccc(C(=O)NS(=O)(=O)c4ccc(NC5CCS(=O)(=O)CC5)c([N+](=O)[O-])c4)c(Oc4cnc5[nH]ccc5c4)c3)CC2)=C(c2ccc(Cl)cc2)C1" is ____.
output: < 0.01 nM

input: Fill in the blank: the reported Ki of "O=C(NS(=O)(=O)c1ccc(NCC2CCOCC2)c([N+](=O)[O-])c1)c1ccc(N2CCN(CC3=C(c4ccc(Cl)cc4)CCC(CF)(CF)C3)CC2)cc1Oc1cnc2[nH]ccc2c1" is ____.
output: < 0.01 nM

input: Fill in the blank: the reported Ki of COCC1(C)CCC(c2ccc(Cl)cc2)=C(CN2CCN(c3ccc(C(=O)NS(=O)(=O)c4ccc(NCC5CCOCC5)c([N+](=O)[O-])c4)c(Oc4cnc5[nH]ccc5c4)c3)CC2)C1 (stereo not shown) is ____.
output: < 0.01 nM

input: Fill in the blank: the reported Ki of COC(=O)N1CCOC(CNc2ccc(S(=O)(=O)NC(=O)c3ccc(N4CCN(CC5=C(c6ccc(Cl)cc6)CC(C)(C)CC5)CC4)cc3Oc3cnc4[nH]ccc4c3)cc2[N+](=O)[O-])C1 (stereo not shown) is ____.
output: < 0.01 nM

input: Fill in the blank: the reported Ki of "CC1(C)CCC(CN2CCN(c3ccc(C(=O)NS(=O)(=O)c4cnc(OC[C@@H]5CCN(CC(F)F)C5)c(Cl)c4)c(Oc4cnc5[nH]ccc5c4)c3)CC2)=C(c2ccc(Cl)cc2)C1" is ____.
output: 0.145 nM

input: Fill in the blank: the reported Ki of "CC1(C)CCC(CN2CCN(c3ccc(C(=O)NS(=O)(=O)c4ccc5nc[nH]c(=O)c5c4)c(Oc4cnc5[nH]ccc5c4)c3)CC2)=C(c2ccc(Cl)cc2)C1" is ____.
output: 3.96 nM

input: Fill in the blank: the reported Ki of "CC1(C)CC(c2ccc(Cl)cc2)=C(CN2CCN(c3ccc(C(=O)NS(=O)(=O)c4ccc(N[C@H]5CC[C@H](N6CCOCC6)CC5)c(S(=O)(=O)C(F)(F)F)c4)c(Oc4cnc5[nH]ccc5c4)c3)CC2)CO1" is ____.
output: < 0.01 nM

These entries and their values trace back to patent US8580794B2.
